Test: Plasma pharmacokinetics in rats following a 2 mg/kg intravenous bolus injection
Assay type: in vivo, male Sprague-Dawley rats
Details: rat, plasma, iv, 48 hours, 2 mg/kg i.v. bolus, Mean ± SD (N = 3)
Description: The pharmacokinetic properties of A(±) of Example 1 were compared with those of each enantiomer, A(+) and A(-) of Example 1. The comparison was made in rats following an intravenous bolus injection. The test articles were formulated in a 0.1N sodium carbonate solution to yield a 2 mg/mL solution. […] Plasma concentrations of each drug were determined by gas chromatographic-electron capture (GC-EC) methods known to those skilled in the art, with a lower limit of detection of 2 ng/mL. […]
Property Label: concentration at 48 h

1. COc1cc(F)cc2c1-c1ccc(F)cc1[C@]21NC(=O)NC1=O [A(-)]; 23 ng/mL
2. COc1cc(F)cc2c1-c1ccc(F)cc1[C@@]21NC(=O)NC1=O [A(+)]; 162 ng/mL
3. COc1cc(F)cc2c1-c1ccc(F)cc1C21NC(=O)NC1=O (racemic) [A(±)]; 108 ng/mL

###

assay: Plasma pharmacokinetics in rats following a 2 mg/kg intravenous bolus injection; assay type: in vivo, male Sprague-Dawley rats; conditions: rat, plasma, iv, 31 hours, 2 mg/kg i.v. bolus, Mean ± SD (N = 3)
Reported concentration at 31 h values for the following molecules.
Property Label: concentration at 31 h (ng/mL)

1) COc1cc(F)cc2c1-c1ccc(F)cc1C21NC(=O)NC1=O (racemic) [A(±)]; 194
2) COc1cc(F)cc2c1-c1ccc(F)cc1[C@@]21NC(=O)NC1=O [A(+)]; 382
3) COc1cc(F)cc2c1-c1ccc(F)cc1[C@]21NC(=O)NC1=O [A(-)]; 127

###

Attribute: concentration at 24 h
assay: Plasma pharmacokinetics in rats following a 2 mg/kg intravenous bolus injection; assay type: in vivo, male Sprague-Dawley rats; conditions: rat, plasma, iv, 24 hours, 2 mg/kg i.v. bolus, Mean ± SD (N = 3)
Property Label: concentration at 24 h (ng/mL)

1) COc1cc(F)cc2c1-c1ccc(F)cc1[C@]21NC(=O)NC1=O [A(-)]; 140
2) COc1cc(F)cc2c1-c1ccc(F)cc1[C@@]21NC(=O)NC1=O [A(+)]; 486
3) COc1cc(F)cc2c1-c1ccc(F)cc1C21NC(=O)NC1=O (racemic) [A(±)]; 352

###

# AUC(0-inf) per entry
test: Plasma pharmacokinetics in rats following a 2 mg/kg intravenous bolus injection; format: in vivo, male Sprague-Dawley rats; settings: rat, plasma, iv, 2 mg/kg i.v. bolus, linear trapezoidal summation with extrapolation to infinity
Property Label: AUC(0-inf)

1) COc1cc(F)cc2c1-c1ccc(F)cc1[C@@]21NC(=O)NC1=O [A(+)]; 54400 ng·h/mL
2) COc1cc(F)cc2c1-c1ccc(F)cc1[C@]21NC(=O)NC1=O [A(-)]; 63000 ng·h/mL
3) COc1cc(F)cc2c1-c1ccc(F)cc1C21NC(=O)NC1=O (racemic) [A(±)]; 60400 ng·h/mL

###

Collected pIC50 values appear next to each entry.
target: Rat Aldose Reductase (AR) (Rattus norvegicus, UniProt P07943)
pIC50: −log10 of the molar value.
Property Label: pIC50

1. COc1cc(F)cc2c1-c1ccc(F)cc1C21NC(=O)NC1=O (racemic) [A(±)]; 5.24
2. COc1cc(F)cc2c1-c1ccc(F)cc1[C@]21NC(=O)NC1=O [A(-)]; 5.23
3. COc1cc(F)cc2c1-c1ccc(F)cc1[C@@]21NC(=O)NC1=O [A(+)]; 5.26

###

assay: Plasma pharmacokinetics in rats following a 2 mg/kg intravenous bolus injection; assay type: in vivo, male Sprague-Dawley rats; details: rat, plasma, iv, 168 hours, 2 mg/kg i.v. bolus, Mean ± SD (N = 3), ND = Not Detected (lower limit of detection 2 ng/mL)
Property Label: concentration at 168 h (ng/mL)

1. COc1cc(F)cc2c1-c1ccc(F)cc1[C@@]21NC(=O)NC1=O [A(+)]; 5
2. COc1cc(F)cc2c1-c1ccc(F)cc1C21NC(=O)NC1=O (racemic) [A(±)]; 5

###

experiment: Plasma pharmacokinetics in rats following a 2 mg/kg intravenous bolus injection; format: in vivo, male Sprague-Dawley rats; conditions: rat, plasma, iv, 2 mg/kg, 2 mg/kg i.v. bolus, read-out: t1/2α (initial distribution phase half-life) (converted)
Property Label: half-life (min)

1) COc1cc(F)cc2c1-c1ccc(F)cc1C21NC(=O)NC1=O (racemic) [A(±)]; 348
2) COc1cc(F)cc2c1-c1ccc(F)cc1[C@]21NC(=O)NC1=O [A(-)]; 258
3) COc1cc(F)cc2c1-c1ccc(F)cc1[C@@]21NC(=O)NC1=O [A(+)]; 186

###

concentration at 8 h: recorded values
assay: Plasma pharmacokinetics in rats following a 2 mg/kg intravenous bolus injection; format: in vivo, male Sprague-Dawley rats; conditions: rat, plasma, iv, 8 hours, 2 mg/kg i.v. bolus, Mean ± SD (N = 3)
Property Label: concentration at 8 h (ng/mL)

1) COc1cc(F)cc2c1-c1ccc(F)cc1[C@@]21NC(=O)NC1=O [A(+)]; 2360
2) COc1cc(F)cc2c1-c1ccc(F)cc1C21NC(=O)NC1=O (racemic) [A(±)]; 2420
3) COc1cc(F)cc2c1-c1ccc(F)cc1[C@]21NC(=O)NC1=O [A(-)]; 2780
